# credit: patent US20140329903A1

assay: in vivo; details: rat, plasma, po, 60 mg/kg
metric.name: AUC (µM·h)

# smiles, uom, value.measured
records = [
    ("C=C(c1ccc(C(=O)O)cc1)c1cc2c(cc1C)C(C)(C)CCC2(C)C", "µM·h", 33),
]

###

Test system: RXRE & Nurr1
Test: Reporter gene transcription assay pRXRE & Nurr1
Type: cell-based
Description: We have enabled assays to detect ligand-induced gene transcription (reporter gene assays) in order to confirm results obtained in BRET2 assays.
pEC50: −log10 of the molar value.

# molecule, pEC50
measured = [
    ("CC1(C)CCC(C)(C)c2cc(N(CC3CC3)c3ncc(C(=O)O)cn3)ccc21 [PAO24]", 6.97),
    ("C=C(c1ccc(C(=O)O)cc1)c1cc2c(cc1C)C(C)(C)CCC2(C)C [Bexarotene, bexarotene]", 7.39),
    ("CC1(C)CCC(C)(C)c2cc3c(cc21)Sc1ccccc1N=C3c1ccc(C(=O)O)cc1 [HX630]", 5.61),
    ("C=CCc1c(C)nc(-c2ccccc2)nc1Nc1ccc(C(=O)O)cc1 [XCT0135908]", 5.27),
    ("CC1=C(/C=C/C(C)=C\\C=C\\C(C)=C\\C(=O)O)C(C)(C)CCC1 [9-cis-RA, 9-cis-Retinoic Acid]", 6.98),
]
